Target: T1, recombinant human TR-2 with a C-terminal hexahistidine tag (TR-2-His) (human, UniProt O14763 56-207)
T1 construct: also called soluble TR-2-His
Assay summary: SPR Biacore 2000; antibody captured on anti-human antibody chip, 226 nM TR-2-His injected, 25 C, 1:1 model;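 also: goat anti-human capture surface amine-coupled on CM5 chip, HBS-P running buffer with BSA, responses normalized to captured antibody level, kinetics from global 1:1 fitting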
Readout name: koff (s⁻¹)
Numeric answer only, unit s⁻¹ assumed.

anti-TR-2 antibody B (antibody, V domains shown, Human antibody from XenoMouse; also called Ab B) VH: QVQLQESGPGLVKPSQTLSLTCTVSGGSISSGGHYWSWIRQHPGKGLEWIGYIYYSGSTYYNPSLKSRVTISVDTSKNQFSLKLSSVTAADTAVYYCARDDSSGWGFDYWGQGILVTVSS VL: DIQMTQSPSSLSASVGDRVTITCRASQGLRNDLGWFQQKPGKVTKRLIYAASSLQRGVPSRFSGSGSGTEFTLTISSLQPEDFATYYCLQHYSFPWTFGQGTKVEIK : 0.011

Tell us which koff value is on record for anti-TR-2 antibody A (antibody, V domains shown, also called Ab A) VH: QVQLVQSGAEVKKPGASVKVSCKASGYTFTSYDINWVRQATGQGLEWMGWMNPNSDNTGYAQKFQGRVTMTRNTSISTAYMELSSLRSEDTAVYYCARWNHYGSGSHFDYWGQGTLVTVSS VL: DIQMTQSPSSLSASVGDRVTITCRASQSISIYLNWYQQKPGKAPKLLIYAASSLQSGVPLRFSGSGSGTDFTLTISSLQPEDIATYYCQQSYKTPLTFGGGTKVEIK 0.0037
